src = PubChem BioAssay (Tox21)

Readings of Potency for the listed compounds
Target: D(2) dopamine receptor (Homo sapiens) (UniProt P14416)
Sequence (P14416 whole entry, looked up): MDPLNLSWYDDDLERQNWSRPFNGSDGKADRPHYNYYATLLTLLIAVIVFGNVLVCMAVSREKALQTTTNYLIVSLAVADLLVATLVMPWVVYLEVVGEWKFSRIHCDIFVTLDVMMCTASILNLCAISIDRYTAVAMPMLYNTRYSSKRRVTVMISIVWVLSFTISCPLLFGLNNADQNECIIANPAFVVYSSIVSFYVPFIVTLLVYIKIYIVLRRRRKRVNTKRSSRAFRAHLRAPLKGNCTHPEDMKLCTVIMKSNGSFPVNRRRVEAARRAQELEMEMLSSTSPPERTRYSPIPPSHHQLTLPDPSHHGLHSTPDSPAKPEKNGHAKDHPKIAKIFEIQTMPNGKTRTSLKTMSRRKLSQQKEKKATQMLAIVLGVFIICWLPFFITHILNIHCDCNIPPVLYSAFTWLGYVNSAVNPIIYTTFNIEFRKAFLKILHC
Assay: Dopamine D2 receptor (DRD2) small molecule antagonists, cell-based qHTS assay (AID 1963595); note: potency is the fitted concentration of half-maximal effect
Settings: HEK293-DRD2 cAMP HTRF antagonist mode; series mostly up to 92.4 µM
Records with an inconclusive call do not appear. Active and inactive are the calls of the source. Calls come from the whole dose curve; as a rule, active = well fitted inhibition curve with a large enough effect in the signal ratio in the repeat runs, with a control signal flat; inconclusive = weak or mixed curves, or effect the other way; inactive = flat fitted curve, though single readings scatter; the % refers to the signal ratio.

// below: answered compounds
CN1CCN(CCCN2c3ccccc3Sc3ccc(C(F)(F)F)cc32)CC1; 29.8 nM (active)
COC(=O)[C@@H]1[C@H]2C[C@H]3c4[nH]c5ccccc5c4CCN3C[C@@H]2CC[C@@H]1O; 23700 nM (active)
CCN(CC)CCNC(=O)c1cc(Cl)c(N)cc1OC; 1680 nM (active)
O=C(CCCN1CCC(O)(c2ccc(Br)cc2)CC1)c1ccc(F)cc1; 188 nM (active)
CCCCCCCC[N+](CCCCCCCC)(CCCCCCCC)CCCCCCCC; 24300 nM (active)

Look up and report measured Potency for this entry: `CNC(=O)c1cnn(-c2nc(N)c3ncn([C@@H]4O[C@H](CO)[C@@H](O)[C@H]4O)c3n2)c1` 1880 nM (active)
